ASSAYED_TARGET: CDK9/Cyclin T1 (Homo sapiens (Human))
Sequence (P50750 whole entry): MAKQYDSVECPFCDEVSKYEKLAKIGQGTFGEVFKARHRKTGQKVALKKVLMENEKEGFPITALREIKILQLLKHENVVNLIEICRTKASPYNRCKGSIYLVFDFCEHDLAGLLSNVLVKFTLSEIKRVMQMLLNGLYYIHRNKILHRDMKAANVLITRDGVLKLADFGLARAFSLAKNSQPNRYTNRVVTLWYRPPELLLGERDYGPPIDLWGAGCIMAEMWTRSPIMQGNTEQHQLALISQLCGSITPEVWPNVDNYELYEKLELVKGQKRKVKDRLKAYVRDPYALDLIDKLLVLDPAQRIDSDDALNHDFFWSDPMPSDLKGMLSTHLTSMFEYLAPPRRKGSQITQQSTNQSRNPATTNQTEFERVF
Sequence (O60563 whole entry partner): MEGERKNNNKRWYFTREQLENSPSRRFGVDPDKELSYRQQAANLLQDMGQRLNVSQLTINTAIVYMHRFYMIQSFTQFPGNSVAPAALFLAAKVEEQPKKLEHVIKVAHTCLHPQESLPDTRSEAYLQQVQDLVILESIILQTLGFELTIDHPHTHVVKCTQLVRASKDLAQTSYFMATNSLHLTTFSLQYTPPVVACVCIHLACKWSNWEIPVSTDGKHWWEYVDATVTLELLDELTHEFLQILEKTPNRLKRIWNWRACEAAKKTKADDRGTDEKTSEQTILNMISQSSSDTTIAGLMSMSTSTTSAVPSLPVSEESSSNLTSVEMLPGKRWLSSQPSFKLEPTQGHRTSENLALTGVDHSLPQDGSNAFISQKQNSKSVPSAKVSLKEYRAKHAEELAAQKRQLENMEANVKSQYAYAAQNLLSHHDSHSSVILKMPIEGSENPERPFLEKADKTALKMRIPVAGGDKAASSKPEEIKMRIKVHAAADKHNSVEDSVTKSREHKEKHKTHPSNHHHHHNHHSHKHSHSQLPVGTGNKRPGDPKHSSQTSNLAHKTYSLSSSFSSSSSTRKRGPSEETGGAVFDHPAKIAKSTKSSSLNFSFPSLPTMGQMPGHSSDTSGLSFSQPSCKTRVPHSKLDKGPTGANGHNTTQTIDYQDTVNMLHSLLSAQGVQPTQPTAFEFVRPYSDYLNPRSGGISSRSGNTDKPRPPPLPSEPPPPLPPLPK
MEASUREMENT_DESCRIPTION: CDK9 enzyme assay (LANCE ULight TR-FRET kinase assay)
Format: biochemical
CONDITION_NOTES: 1000 μM ATP, 100 nM ULight MBP, kinase reaction 1 hour
Recorded IC50, one value per entry.
Report only the number, with the unit nM understood.

Guide cases for IC50, answers given:
- COMPOUND: "CN1Cc2c(C3=CCN([C@H]4CC[C@H](CC(=O)O)CC4)CC3)[nH]c3nccc(c23)-c2cc(F)ccc21"
  IC50 / nM: 64
- COMPOUND: "CN(CC(O)CO)C(=O)CN1C2C=C(c3[nH]c4nccc5c4c3CN(C)c3ccc(F)cc3-5)CC1CCC2 (centres unmarked)"
  IC50 / nM: 110
- COMPOUND: "CN1Cc2c(C3=CC4CCCC(C3)N4CC(=O)O)[nH]c3nccc(c23)-c2cc(F)ccc21 (centres unmarked)"
  IC50 / nM: 110

Fill in: IC50 of CN1Cc2c(-c3cccnc3)[nH]c3nccc(c23)-c2cc(F)ccc21 is ___
75

Reported IC50, compound CC[C@H]1c2c(C3=CCN([C@H]4C[C@@H](C(=O)OC)C4)CC3)[nH]c3nccc(c23)-c2cc(F)ccc2N1C : ____
64

Data origin, for the record: patent US9328112B2
